# Tested on: human monoclonal antibody CRJB
# Assay type: binding
Threshold check on Binding of CRJB (10 μg/ml) to looped/cyclic peptide (PEPSCAN-ELISA signal): at or above 70 gives criterion met, strictly below gives criterion not met.

In [3]: df
Out[3]:
       sequencedata   qualitativelabel
 0  IWMPENPRLGMSCDI      criterion met
 1  IYTILDKLGPWSPID  criterion not met
 2  PENPRLGMSCDIFTN      criterion met
 3  VGYILAIKMNGFTCT      criterion met
 4  LSCPNNLVVEDEGCT      criterion met
 5  DIHHLSCPNNLVVED  criterion not met
 6  NLVVEDEGCTNLSGF      criterion met
 7  EGCTNLSGFSYMELK      criterion met
 8  VVEDEGCTNLSGFSY  criterion not met
 9  PSGKCSGVAVSSTYC  criterion not met
10  RKHFRPTPDACRAAY      criterion met
11  KTTKESLVIISPSVA      criterion met
12  CSGVAVSSTYCSTNH      criterion met
13  TEAENYTNFVGYVTT  criterion not met

###

# Test system: human monoclonal antibody CRJA
# Assay type: binding
Please respond with Fulfilled when measured Binding of CRJA to linear peptide (PEPSCAN-ELISA signal) is strictly beneath 100, and with Not fulfilled in all other cases.

      sequencedata  qualitativelabel
0  YILAIKMNGFTCTGV         Fulfilled
1  HLVVEELVRKREECL     Not fulfilled
2  WLRTVKTTKESLVII         Fulfilled
3  ESSVIPLVHPLADPS     Not fulfilled
4  VEELVRKREECLDAL         Fulfilled
5  HVNGVFFNGIILGPD     Not fulfilled
6  KGCLRVGGRCHPHVN     Not fulfilled

###

# Test system: human monoclonal antibody CRJA
# Assay type: binding
Below: a set of entries, each annotated with reported Binding of CRJA (10 μg/ml) to looped/cyclic peptide (PEPSCAN-ELISA).
assayMetric: Binding of CRJA (10 μg/ml) to looped/cyclic peptide (PEPSCAN-ELISA)

>>> df
       sequencedata  observed
 0  VIPLVHPLADPSTVF        84
 1  LRVGGRCHPHVNGVF        96
 2  SKGSETCGFVDERGL        99
 3  TSNETKWCPPDQLVN        96
 4  CGFVDERGLYKSLKG        90
 5  LMDGTWVAMQTSNET        92
 6  PLVHPLADPSTVFKD       104
 7  VGGRCHPHVNGVFFN       106
 8  KGACKLKLCGVLGLR        50
 9  PDQLVNLHDFRSDEI        46
10  NGIILGPDGNVLIPE        85
11  LQQHMELLESSVIPL       108
12  FFNGIILGPDGNVLI       100
13  IPEMQSSLLQQHMEL        54
14  SVSFRRLSHLRKLVP        98
15  MQTSNETKWCPPDQL        74
16  ASKGSETCGFVDERG       120
17  HDFRSDEIEHLVVEE       111

###

# Tested on: human monoclonal antibody CR57
# Type: binding
Label N if Binding of human monoclonal antibody CR57 to linear peptide (PEPSCAN-ELISA signal) falls below 100; label Y in every other case.

>>> df
       sequencedata  qualitativelabel
 0  HLPDVHNQVSGVDLG                 Y
 1  EDFVEVHLPDVHNQV                 N
 2  DGDEAEDFVEVHLPD                 N
 3  STVFKDGDEAEDFVE                 Y
 4  PSTVFKDGDEAEDFV                 Y
 5  VEVHLPDVHNQVSGV                 Y
 6  AEDFVEVHLPDVHNQ                 Y
 7  NQVSGVDLGLPNWGK                 N
 8  PDVHNQVSGVDLGLP                 Y
 9  LADPSTVFKDGDEAE                 N
10  GDEAEDFVEVHLPDV                 N
11  HPLADPSTVFKDGDE                 N
12  KDGDEAEDFVEVHLP                 N
13  HNQVSGVDLGLPNWG                 N

###

# Test system: human monoclonal antibody CR57
# Type: binding
The entries below are paired with their reported Binding of CR57 (10 μg/ml) to looped/cyclic peptide (PEPSCAN-ELISA signal).
assayMetric: Binding of CR57 (10 μg/ml) to looped/cyclic peptide (PEPSCAN-ELISA signal)

In [3]: df
Out[3]:
      sequencedata  observed
0  VAVSSTYCSTNHDYT       103
1  VVTEAENYTNFVGYV        80
2  STYCSTNHDYTIWMP        90
3  RWLRTVKTTKESLVI        77
4  EAENYTNFVGYVTTT        55
5  YTIWMPENPRLGMSC       191
6  DACRAAYNWKMAGDP       133
7  YEESLHNPYPDYRWL        98
8  VADLDPYDRSLHSRV        85

###

# System: human monoclonal antibody CRJA
# Type: binding
Property: Binding of CRJA (10 μg/ml) to looped/cyclic peptide (PEPSCAN-ELISA signal); scope: individual sequences
assayMetric: Binding of CRJA (10 μg/ml) to looped/cyclic peptide (PEPSCAN-ELISA signal)

       sequencedata  observed
 0  SCPNNLVVEDEGCTN        85
 1  MSCDIFTNSRGKRAS        49
 2  NLSGFSYMELKVGYI        90
 3  PIYTILDKLGPWSPI        78
 4  DKLGPWSPIDIHHLS        89
 5  YTNFVGYVTTTFKRK        72
 6  YMELKVGYILAIKMN        76
 7  GCTNLSGFSYMELKV        55
 8  CSTNHDYTIWMPENP        41
 9  RWLRTVKTTKESLVI        71
10  NPRLGMSCDIFTNSR        91
11  RLGMSCDIFTNSRGK       110
12  KMAGDPRYEESLHNP        38
13  YTILDKLGPWSPIDI        91
14  NNLVVEDEGCTNLSG        88
15  VKTTKESLVIISPSV       100
16  DEGCTNLSGFSYMEL        57
17  STNHDYTIWMPENPR        51
18  HHLSCPNNLVVEDEG        96

###

# Tested on: human monoclonal antibody CRJB
# Type: binding
assayMetric: Binding of CRJB (10 μg/ml) to looped/cyclic peptide (PEPSCAN-ELISA)

In [3]: df
Out[3]:
       sequencedata  observed
 0  AMQTSNETKWCPPDQ        58
 1  VDERGLYKSLKGACK        80
 2  DERGLYKSLKGACKL       123
 3  RSDEIEHLVVEELVR        93
 4  GPDGNVLIPEMQSSL       100
 5  KTLMEADAHYKSVRT        97
 6  LRVGGRCHPHVNGVF       105
 7  SHLRKLVPGFGKAYT       103
 8  RKLVPGFGKAYTIFN        79
 9  PEMQSSLLQQHMELL        82
10  GVLGLRLMDGTWVAM        83
11  DEIEHLVVEELVRKR       106
12  GLYKSLKGACKLKLC        97
13  SVRTWNEILPSKGCL       147
14  RTWNEILPSKGCLRV        93
15  ACKLKLCGVLGLRLM        92
16  KSLKGACKLKLCGVL        97

###

# Tested on: human monoclonal antibody CRJA
# Assay type: binding
assayMetric: Binding of CRJA to linear peptide (PEPSCAN-ELISA signal)

>>> print(df.to_string())
       sequencedata  observed
 0  HMELLESSVIPLVHP       114
 1  SVADLDPYDRSLHSR        92
 2  SSLLQQHMELLESSV       106
 3  LGPDGNVLIPEMQSS        99
 4  NPRLGMSCDIFTNSR        82
 5  VRTWNEILPSKGCLR       105
 6  KREECLDALESIMTT        83
 7  SCPNNLVVEDEGCTN        88
 8  SFRRLSHLRKLVPGF        75
 9  PHVNGVFFNGIILGP       117
10  SVIPLVHPLADPSTV        64
11  LVVEELVRKREECLD        65
12  ALESIMTTKSVSFRR       107
13  IYTILDKLGPWSPID        83
14  VNLHDFRSDEIEHLV       103
15  GDPRYEESLHNPYPD        96
16  KSVSFRRLSHLRKLV       111
17  NWKMAGDPRYEESLH        69
18  VKTTKESLVIISPSV        96
19  MAGDPRYEESLHNPY        71
20  FRPTPDACRAAYNWK       104
21  SCDIFTNSRGKRASK        89
22  NLVVEDEGCTNLSGF        85
23  LPSKGCLRVGGRCHP        58
24  LDALESIMTTKSVSF        92
25  LESSVIPLVHPLADP       110
26  FKRKHFRPTPDACRA        86
27  PYPDYRWLRTVKTTK        84
28  GVLGLRLMDGTWVAM       107
29  WCPPDQLVNLHDFRS       114
30  GFTCTGVVTEAENYT        90
